# target-of-assay: T1, human GREM1 (hGREM1-His; SEQ ID NO: 595) (human, UniProt O60565 25-184)
# T1 construct: also called biotin-hGREM1-His; recombinant human GREM1 protein
# T1 sequence: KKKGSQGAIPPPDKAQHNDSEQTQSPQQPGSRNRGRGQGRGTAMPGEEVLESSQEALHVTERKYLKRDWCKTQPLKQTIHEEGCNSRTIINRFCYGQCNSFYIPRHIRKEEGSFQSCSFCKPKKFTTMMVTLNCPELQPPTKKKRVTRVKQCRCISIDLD
# procedure-text: SPR, Biacore T200, 37 C, mAb captured, hGREM1-His injected;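 further: HBS-EP running buffer containing heparin, association and dissociation phases tracked, KD computed as koff over kon and half-life derived from koff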
measure: koff (s⁻¹)
Give just the numeric value; s⁻¹ need not be written.

H4H6243P (antibody, human IgG4, V domains shown, H4H prefix = human IgG4 Fc) VH: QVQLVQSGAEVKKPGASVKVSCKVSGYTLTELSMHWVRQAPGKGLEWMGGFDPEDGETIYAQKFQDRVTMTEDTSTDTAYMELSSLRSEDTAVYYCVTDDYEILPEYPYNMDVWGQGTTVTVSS VL: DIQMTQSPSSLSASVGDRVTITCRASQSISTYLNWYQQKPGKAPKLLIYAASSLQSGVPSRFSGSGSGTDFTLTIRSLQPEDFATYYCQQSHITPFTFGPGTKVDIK: 0.000484

Okay, now this binder:
Recorded result, H4H2926N (antibody, human IgG4, V domains shown, H4H prefix = human IgG4 Fc) VH: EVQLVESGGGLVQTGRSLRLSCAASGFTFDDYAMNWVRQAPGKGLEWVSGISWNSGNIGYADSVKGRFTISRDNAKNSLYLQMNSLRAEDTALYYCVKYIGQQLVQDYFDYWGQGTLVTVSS VL: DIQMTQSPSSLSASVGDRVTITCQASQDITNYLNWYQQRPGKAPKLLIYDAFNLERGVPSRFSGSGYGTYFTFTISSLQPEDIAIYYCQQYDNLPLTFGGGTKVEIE , koff: 0.0014
